TARGET ENTITY: human recombinant histamine H2 receptor (Homo sapiens, UniProt P25021)
Construct: expressed in transfected cells; host or cells: CHO-K1 cells
Sequence (P25021 whole entry): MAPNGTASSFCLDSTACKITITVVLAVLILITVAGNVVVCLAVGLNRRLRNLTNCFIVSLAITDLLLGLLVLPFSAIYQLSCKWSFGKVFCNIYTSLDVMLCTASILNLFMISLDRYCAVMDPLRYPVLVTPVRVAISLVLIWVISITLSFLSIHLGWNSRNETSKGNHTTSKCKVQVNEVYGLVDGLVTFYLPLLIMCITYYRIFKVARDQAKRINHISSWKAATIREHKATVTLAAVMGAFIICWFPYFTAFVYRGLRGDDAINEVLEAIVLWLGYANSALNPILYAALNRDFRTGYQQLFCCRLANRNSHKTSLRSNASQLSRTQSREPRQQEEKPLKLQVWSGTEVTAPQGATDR
ASSAY METHOD TEXT: Histamine H2 radioligand binding ([125I]Aminopotentidine)
CONDITION DETAILS: 1 μM; inhibition of specific [125I]Aminopotentidine binding; read-out: Binding data (Percentage Inhibition) Histamine Binding (1 μM) H2
Record form. Attribute: inhibition at 1 µM. Fill in for each entry.
# do not omit the unit; it follows the number

Q: Report its inhibition at 1 µM with human recombinant histamine H2 receptor (Homo sapiens, UniProt P25021) as the test system: CCC1c2c(c3cc(C)ccc3n2/C=C(\C)c2ccc(Cl)cc2)CCN1C (stereo not shown)
Result: 67%

Q: Report its inhibition at 1 µM with human recombinant histamine H2 receptor (Homo sapiens, UniProt P25021) as the test system: C/C(=C\n1c2c(c3cc(C)ccc31)CCN(C)C2c1ccccc1)c1ccc(Cl)cc1 (stereo not shown)
Result: 25%

Q: Report its inhibition at 1 µM with human recombinant histamine H2 receptor (Homo sapiens, UniProt P25021) as the test system: `COc1ccc(/C(C)=C/n2c3c(c4cc(C)ccc42)CCN(C)C3)cc1F`
Result: 50%

Q: Report its inhibition at 1 µM with human recombinant histamine H2 receptor (Homo sapiens, UniProt P25021) as the test system: CCC1c2c(c3cc(Cl)ccc3n2C#Cc2ccc(F)cc2)CCN1C (stereo not shown)
Result: 26%

====

Record form. Attribute: inhibition at 1 µM. Fill in for each entry.
TARGET ENTITY: human recombinant dopamine D2L receptor (Homo sapiens, UniProt P14416)
Construct: expressed in transfected cells; host or cells: CHO cells
Sequence (P14416 whole entry): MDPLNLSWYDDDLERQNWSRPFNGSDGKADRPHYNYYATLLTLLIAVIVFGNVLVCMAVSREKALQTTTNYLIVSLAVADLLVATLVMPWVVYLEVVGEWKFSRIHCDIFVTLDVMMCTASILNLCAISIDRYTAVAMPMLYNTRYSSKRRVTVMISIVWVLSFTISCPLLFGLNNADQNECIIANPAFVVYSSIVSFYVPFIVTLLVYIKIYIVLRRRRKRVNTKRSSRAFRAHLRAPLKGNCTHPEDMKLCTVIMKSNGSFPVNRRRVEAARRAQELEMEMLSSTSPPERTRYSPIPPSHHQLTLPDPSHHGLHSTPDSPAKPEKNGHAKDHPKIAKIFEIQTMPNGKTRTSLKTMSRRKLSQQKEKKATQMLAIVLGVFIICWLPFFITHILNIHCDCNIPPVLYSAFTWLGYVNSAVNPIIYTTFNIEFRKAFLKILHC
ASSAY METHOD TEXT: Dopamine D2L radioligand binding ([3H]Spiperone)
CONDITION DETAILS: 2 h, 1 μM ligand conc.; read-out: Percent Inhibition of ligand binding Dopamine (1 μM ligand conc.) D2L
Note: unit % is implicit; provide only the numeric part.

Q: In one line, give reported inhibition at 1 µM of the entry C/C(=C\n1c2c(c3cc(Cl)ccc31)CCN(C)C2C)c1ccc(Cl)c(Cl)c1 (stereo not drawn) .
Result: 0

Q: In one line, give reported inhibition at 1 µM of the entry C/C(=C\n1c2c(c3cc(C)ccc31)CCN(C)C2C)c1ccccc1F (stereo not drawn) .
Result: 21

Q: In one line, give reported inhibition at 1 µM of the entry `Cc1ccc(CCCn2c3c(c4cc(Cl)ccc42)CCN(C)C3)cn1` .
Result: 9

Q: In one line, give reported inhibition at 1 µM of the entry C/C(=C\n1c2c(c3cc(Cl)ccc31)CCN(C)C2C)c1ccc(F)c(F)c1 (stereo not drawn) .
Result: 5

Q: In one line, give reported inhibition at 1 µM of the entry `Cc1ccc2c(c1)c1c(n2CC(=O)N2CCCCC2)CN(C)CC1` .
Result: 6

Q: In one line, give reported inhibition at 1 µM of the entry Cc1ccc2c(c1)c1c(n2C#Cc2ccc(Cl)cc2)C(C)N(C)CC1 (stereo not drawn) .
Result: 1

Q: In one line, give reported inhibition at 1 µM of the entry `CN1CCc2c(n(CCC3CCCC3)c3ccc(Cl)cc23)C1` .
Result: 3

Q: In one line, give reported inhibition at 1 µM of the entry C/C(=C\n1c2c(c3cc(C)ccc31)CCN(C)C2C)c1ccc(Cl)cc1 (stereo not drawn) .
Result: 0

Q: In one line, give reported inhibition at 1 µM of the entry CCC1c2c(c3cc(Cl)ccc3n2/C=C(\C)c2ccc(Cl)c(Cl)c2)CCN1C (stereo not drawn) .
Result: 0
